system: rodent lifetime carcinogenesis bioassay, tumor incidence TD50; test: carcinogenic potency in animals, long-term in vivo studies, CPDB compilation (AID 1745844); settings: rat; strain Fischer 344; males; in drinking water; site: colon, ascending + cecum + colon + colon, descending + rectum; lesion: adenomatous polyp + mucinous cystadenocarcinoma + adenocarcinoma; dosed 88 weeks; study length 92 weeks
readout.label: TD50

The reported TD50 value, rodent lifetime carcinogenesis bioassay, tumor incidence TD50, for COc1cc(-c2ccc(N)c(OC)c2)ccc1N reads 9.91 mg/kg/day

====

system: rodent lifetime carcinogenesis bioassay, tumor incidence TD50; assay: carcinogenic potency in animals, long-term in vivo studies, CPDB compilation (AID 1745844); details: rat; strain Fischer 344; males; by gavage; site: kidney; lesion: tubule adenoma + tubule epithelium adenoma; dosed 103 weeks; study length 104 weeks
readout.label: TD50

Record C[C@@H]1Cc2c(Cl)cc(C(=O)N[C@@H](Cc3ccccc3)C(=O)O)c(O)c2C(=O)O1 , field TD50: 0.241 mg/kg/day

====

tested on: rodent lifetime carcinogenesis bioassay, tumor incidence TD50; assay: carcinogenic potency in animals, long-term in vivo studies, CPDB compilation (AID 1745844); conditions: mouse; strain C3H/HeN-MTV-/Nctr (MTV-); females; in feed; site: uterus; lesion: endometrial adenocarcinoma; dosed 125 weeks; study length 125 weeks
readout.label: TD50 (mg/kg/day)
Number in mg/kg/day, nothing else.

Record CC/C(=C(/CC)c1ccc(O)cc1)c1ccc(O)cc1 , field TD50: 1.71

====

system: rodent lifetime carcinogenesis bioassay, tumor incidence TD50; assay: carcinogenic potency in animals, long-term in vivo studies, CPDB compilation (AID 1745844); details: mouse; strain CDF1; females; in feed; site: forestomach; lesion: several types; types named in the paper; dosed 96 weeks; study length 96 weeks
readout.label: TD50

Record Cn1c(N)nc2c3cccnc3ccc21 , field TD50: 62.4 mg/kg/day

====

test system: rodent lifetime carcinogenesis bioassay, tumor incidence TD50; experiment: carcinogenic potency in animals, long-term in vivo studies, CPDB compilation (AID 1745844); conditions: mouse; strain B6C3F1; males; in feed; site: liver; lesion: hepatocellular adenoma + hepatocellular carcinoma + neoplastic nodule; dosed 103 weeks; study length 103 weeks
readout.label: TD50 (mg/kg/day)
Number in mg/kg/day, nothing else.

COc1ccc([N+](=O)[O-])cc1N=Nc1c(O)c(C(=O)Nc2cccc([N+](=O)[O-])c2)cc2ccccc12 : 15100
CN(C)C(=O)Nc1cccc(C(F)(F)F)c1 : 229
Nc1ccc2cc3ccc(N)cc3nc2c1 : 248
CNC(=O)ON=CC(C)(C)SC : 2.83
Brc1c(Br)c(Br)c(Oc2c(Br)c(Br)c(Br)c(Br)c2Br)c(Br)c1Br : 11200
O=S(=O)(O)c1ccc(N=Nc2c(O)ccc3cc(S(=O)(=O)O)ccc23)cc1 : 14200

Proceed to the following item.
Record CCOC(=O)CC(SP(=O)(OC)OC)C(=O)OCC (configuration not stated) , field TD50: 579

====

system: rodent lifetime carcinogenesis bioassay, tumor incidence TD50; experiment: carcinogenic potency in animals, long-term in vivo studies, CPDB compilation (AID 1745844); details: rat; strain Fischer 344; females; oral dosing; site: liver; lesion: hepatocellular adenoma + hepatocellular carcinoma + neoplastic nodule; dosed 78 weeks; study length 104 weeks
readout.label: TD50 (mg/kg/day)
Number in mg/kg/day, nothing else.

The reported TD50 value, rodent lifetime carcinogenesis bioassay, tumor incidence TD50, for COc1cc(-c2ccc(N=C=O)c(OC)c2)ccc1N=C=O reads 17100
